pIC50 listing for selected compounds.
# targetUnderTest: IRAK4 (Homo sapiens)
# Construct: purchased CARNA Bioscience 09-145
# Sequence (Q9NWZ3 whole entry): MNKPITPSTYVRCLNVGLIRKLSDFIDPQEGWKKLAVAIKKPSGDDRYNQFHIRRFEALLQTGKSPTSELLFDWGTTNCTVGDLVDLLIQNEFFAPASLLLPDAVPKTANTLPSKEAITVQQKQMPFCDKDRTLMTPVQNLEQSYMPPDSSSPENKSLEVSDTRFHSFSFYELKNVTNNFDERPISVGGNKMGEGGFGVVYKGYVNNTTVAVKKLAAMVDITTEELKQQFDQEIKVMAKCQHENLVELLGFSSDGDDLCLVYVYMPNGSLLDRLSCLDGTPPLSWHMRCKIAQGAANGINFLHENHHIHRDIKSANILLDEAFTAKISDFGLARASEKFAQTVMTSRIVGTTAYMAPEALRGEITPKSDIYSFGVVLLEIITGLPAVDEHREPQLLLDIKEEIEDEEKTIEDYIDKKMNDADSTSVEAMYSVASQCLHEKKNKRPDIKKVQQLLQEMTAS
# protocol: IRAK-4 activity inhibition assay (Caliper)
# Format: biochemical
# assaySetup: 3.5 nM IRAK4, 37 μM ATP, 1.5 μM Peptide 8
pIC50: −log10 of the molar value.

Data point: CCc1nsc2ncnc(N[C@H]3CC[C@H](N4CCOCC4)CC3)c12 [Compound I-20] ; pIC50 = 5.30 to 6.00

====

pIC50 listing for selected compounds.
# System: cytokine production in human white blood cells (hWBC)
# protocol: In vitro LPS/R848/CpG-induced cytokine production assay in hWBC
# Type: cell-based
# assaySetup: Homo sapiens; WBC, LPS 0.1 uM, overnight; read-out: TNF-α production IC50
pIC50: −log10 of the molar value.

Data point: `CCc1nc2c(N[C@H]3CC[C@H](N4CCOCC4)CC3)nc(Nc3cnn(C)c3)nc2s1` ; pIC50 = 6.00 to 6.60

Data point: `CCc1nc2c(N[C@H]3CC[C@H](N4CCOCC4)CC3)nc(Nc3cnn(C4CCOCC4)c3)nc2s1` ; pIC50 = ≥ 6.60
